# protein stability index annotations
TEST SUMMARY: protein stability index of a GFP-peptide fusion (yeast GPS) (PSI 1-4); higher = more stable; sorted into four equal gates, so the index is relative within each strain
EXPERIMENTAL SETUP: doa10∆
Give your answer as a number; write no unit.

Use these answered entries as a reference point.
HKKKRSNAAGADDAISM [SRB8]	3.06
ESSFIEIDDTEAEVTAE [BRR2]	3.01
NNNNSTRPQMPSRTRET [GRR1]	2.94

Kindly consider the entry below.
protein stability index recorded for this sequence, HPTTIESLREIPYGPDF [SEC65] , is 3.06

====

TEST SUMMARY: protein stability index of a GFP-peptide fusion (yeast GPS) (PSI 1-4); higher = more stable; sorted into four equal gates, so the index is relative within each strain
EXPERIMENTAL SETUP: pdr5∆
READOUT: protein stability index
Give your answer as a number; write no unit.

DLLVIDSHKRIPDMSKN [SNU114]	3.09
TQHKVTQYKAGKASLFA [RPL42A]	3.04

protein stability index recorded for this sequence, TIPLGGSVHKLPYAIAG [PRE3] , is 2.91

protein stability index recorded for this sequence, NAFRKEELLLKDLEIRK [GAL11] , is 3.09

protein stability index recorded for this sequence, QLAVANEIIRSLSDEVM [SIR4] , is 3

protein stability index recorded for this sequence, STQELQTRAKLLDNEIR [RPT5] , is 3.05

protein stability index recorded for this sequence, QIYGFEGLNQRNQVQTE [YGR119C/NUP57] , is 2.94

protein stability index recorded for this sequence, IPVNKRRGAHGSELSSK [SIR3] , is 3.03

protein stability index recorded for this sequence, EKLKVNMEKEKDRIIDE [YIL149C/MLP2] , is 3.05

protein stability index recorded for this sequence, NGDKMPLKFKLGPLSYQ [YJR042W/NUP85] , is 3.09

protein stability index recorded for this sequence, YQWNLDGLQQLDKYLYV [RPN1] , is 3.08

protein stability index recorded for this sequence, EAESQWYIEKVIRIPMQ [CSI1] , is 2.96

====

TEST SUMMARY: protein stability index of a GFP-peptide fusion (yeast GPS) (PSI 1-4); higher = more stable; sorted into four equal gates, so the index is relative within each strain
EXPERIMENTAL SETUP: ubr1∆
READOUT: protein stability index
Give your answer as a number; write no unit.

KKKRKKKNKSAIDGIFG [RMP1]	3.03
RADTDLAMNDDDFLSKK [SNF2]	3.42
YHGISKNDNIKKSVNKL [POP6]	2.85
KTLKRMIKESSTANPNI [POP1]	2.67

protein stability index recorded for this sequence, RMKSITSTSQKIPSASI [SNF5] , is 3.08

protein stability index recorded for this sequence, DENKDDELVKLLLDNGF [SRP68] , is 3.31

protein stability index recorded for this sequence, EQLSKQRDLYKRKEELV [SMC2] , is 2.73

protein stability index recorded for this sequence, SGNDSMAGKVLILTSHN [BRR2] , is 2.36

====

TEST SUMMARY: protein stability index of a GFP-peptide fusion (yeast GPS) (PSI 1-4); higher = more stable; sorted into four equal gates, so the index is relative within each strain
EXPERIMENTAL SETUP: pdr5∆
# protein stability index annotations
Give your answer as a number; write no unit.

FRTVKEMVKDRGYFITQ [RPB5]	2.08
ILDSLPSVIHSSVEMLL [YDL116W/NUP84]	1.44
YGAYNTQIANAGASPMV [PRE4]	2.3

protein stability index recorded for this sequence, PLKIHRTPYLTSLKKIK [SWI1] , is 1.82
